Biological target: NEK2 (human) (UniProt P51955)
Sequence (P51955 whole entry, looked up): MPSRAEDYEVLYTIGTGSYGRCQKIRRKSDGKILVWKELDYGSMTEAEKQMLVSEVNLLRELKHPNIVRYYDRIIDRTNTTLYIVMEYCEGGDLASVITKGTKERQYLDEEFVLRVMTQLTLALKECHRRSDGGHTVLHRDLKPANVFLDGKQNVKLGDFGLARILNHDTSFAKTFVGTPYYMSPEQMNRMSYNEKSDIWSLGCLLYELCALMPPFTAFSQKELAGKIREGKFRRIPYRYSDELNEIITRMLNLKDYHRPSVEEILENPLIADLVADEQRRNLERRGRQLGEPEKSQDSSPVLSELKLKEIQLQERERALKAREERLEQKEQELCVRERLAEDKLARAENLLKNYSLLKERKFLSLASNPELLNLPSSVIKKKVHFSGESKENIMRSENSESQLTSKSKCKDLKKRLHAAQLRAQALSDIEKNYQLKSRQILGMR
Assay: KINOMEscan competition binding
Conditions: compound 1.0 µM
measured metric: kinase still bound, per cent of control (%)

smiles_text=Cc1cc(NC(=O)c2cccc(NC(=O)/C=C/CN(C)C)c2)ccc1Nc1nccc(-c2cccnc2)n1 target_or_system="NEK2 (human) (UniProt P51955)" readout_value=100
smiles_text=CN(C)C/C=C/C(=O)Nc1cccc(C(=O)Nc2ccc(Nc3nccc(-c4c(-c5ccccc5)nn5ccccc45)n3)cc2)c1 target_or_system="NEK2 (human) (UniProt P51955)" readout_value=93
smiles_text=CN(C)C/C=C/C(=O)Nc1cccc(C(=O)Nc2ccc(Nc3nccc(-c4cccnc4)n3)cc2)c1 target_or_system="NEK2 (human) (UniProt P51955)" readout_value=86
smiles_text=CN(C)C/C=C/C(=O)Nc1cccc(C(=O)Nc2ccc(Nc3nccc(/C(C#N)=C4\Nc5ccccc5S4)n3)cc2)c1 target_or_system="NEK2 (human) (UniProt P51955)" readout_value=99

====

Below is a list of entries, each paired with its recorded kinase still bound, per cent of control value.
Molecular target: FGFR1 (human)
Experiment: KINOMEscan competition binding
Conditions: compound 1.0 µM
measured metric: kinase still bound, per cent of control (%)

smiles_text=CN(C)C/C=C/C(=O)Nc1cccc(C(=O)Nc2ccc(Nc3nccc(-c4cccnc4)n3)cc2)c1 measured_metric="kinase still bound, per cent of control" unit_tag=% readout_value=90
smiles_text=CN(C)C/C=C/C(=O)Nc1cccc(C(=O)Nc2ccc(Nc3nccc(/C(C#N)=C4\Nc5ccccc5S4)n3)cc2)c1 measured_metric="kinase still bound, per cent of control" unit_tag=% readout_value=100
smiles_text=Cc1cc(NC(=O)c2cccc(NC(=O)/C=C/CN(C)C)c2)ccc1Nc1nccc(-c2cccnc2)n1 measured_metric="kinase still bound, per cent of control" unit_tag=% readout_value=94
smiles_text=CN(C)C/C=C/C(=O)Nc1cccc(C(=O)Nc2ccc(Nc3nccc(-c4c(-c5ccccc5)nn5ccccc45)n3)cc2)c1 measured_metric="kinase still bound, per cent of control" unit_tag=% readout_value=80

====

Target: UniProtKB P53779
Sequence (P53779 whole entry, looked up): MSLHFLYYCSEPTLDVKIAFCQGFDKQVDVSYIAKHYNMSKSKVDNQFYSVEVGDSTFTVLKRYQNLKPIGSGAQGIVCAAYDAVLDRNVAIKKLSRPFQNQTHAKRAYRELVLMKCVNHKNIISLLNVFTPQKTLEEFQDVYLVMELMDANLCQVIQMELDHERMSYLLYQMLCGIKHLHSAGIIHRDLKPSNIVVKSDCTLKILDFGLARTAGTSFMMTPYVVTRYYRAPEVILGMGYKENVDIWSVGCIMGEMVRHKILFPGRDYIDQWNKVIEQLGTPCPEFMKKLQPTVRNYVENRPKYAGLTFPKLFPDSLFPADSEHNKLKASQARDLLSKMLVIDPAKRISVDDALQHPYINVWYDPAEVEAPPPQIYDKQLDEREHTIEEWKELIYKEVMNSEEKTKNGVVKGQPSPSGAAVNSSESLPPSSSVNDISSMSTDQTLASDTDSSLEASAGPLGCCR
measured metric: Kd (nM)

smiles_text=Cc1ccc(NC(=O)c2ccc(NC(=O)/C=C/CN(C)C)cc2)cc1Nc1nccc(-c2cccnc2)n1 readout_value=100

====

Below is a list of entries, each paired with its recorded kinase still bound, per cent of control value.
Biological target: UniProtKB Q96BR1
Sequence (Q96BR1 whole entry, looked up): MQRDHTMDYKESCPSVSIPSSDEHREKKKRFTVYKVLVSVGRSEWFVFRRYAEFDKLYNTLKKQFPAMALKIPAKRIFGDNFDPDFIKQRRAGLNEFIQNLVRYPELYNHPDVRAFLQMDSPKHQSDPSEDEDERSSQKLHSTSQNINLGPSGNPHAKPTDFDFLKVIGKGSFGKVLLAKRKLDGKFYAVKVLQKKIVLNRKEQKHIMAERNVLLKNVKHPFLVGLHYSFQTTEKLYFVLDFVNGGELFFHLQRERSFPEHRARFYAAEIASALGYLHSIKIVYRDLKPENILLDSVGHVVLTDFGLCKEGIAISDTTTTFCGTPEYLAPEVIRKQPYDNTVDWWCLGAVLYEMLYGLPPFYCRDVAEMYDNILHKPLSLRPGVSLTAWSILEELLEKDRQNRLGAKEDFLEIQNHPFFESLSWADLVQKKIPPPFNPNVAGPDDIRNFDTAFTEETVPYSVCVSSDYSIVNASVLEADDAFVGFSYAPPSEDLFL
Test: KINOMEscan competition binding
Settings: compound 1.0 µM
measured metric: kinase still bound, per cent of control (%)

smiles_text=Cc1cc(NC(=O)c2cccc(NC(=O)/C=C/CN(C)C)c2)ccc1Nc1nccc(-c2cccnc2)n1 readout_value=48
smiles_text=CN(C)C/C=C/C(=O)Nc1cccc(C(=O)Nc2ccc(Nc3nccc(-c4cccnc4)n3)cc2)c1 readout_value=100
smiles_text=CN(C)C/C=C/C(=O)Nc1cccc(C(=O)Nc2ccc(Nc3nccc(/C(C#N)=C4\Nc5ccccc5S4)n3)cc2)c1 readout_value=97
smiles_text=CN(C)C/C=C/C(=O)Nc1cccc(C(=O)Nc2ccc(Nc3nccc(-c4c(-c5ccccc5)nn5ccccc45)n3)cc2)c1 readout_value=91

====

Target: CDK8 (human) (UniProt P49336)
Sequence (P49336 whole entry, looked up): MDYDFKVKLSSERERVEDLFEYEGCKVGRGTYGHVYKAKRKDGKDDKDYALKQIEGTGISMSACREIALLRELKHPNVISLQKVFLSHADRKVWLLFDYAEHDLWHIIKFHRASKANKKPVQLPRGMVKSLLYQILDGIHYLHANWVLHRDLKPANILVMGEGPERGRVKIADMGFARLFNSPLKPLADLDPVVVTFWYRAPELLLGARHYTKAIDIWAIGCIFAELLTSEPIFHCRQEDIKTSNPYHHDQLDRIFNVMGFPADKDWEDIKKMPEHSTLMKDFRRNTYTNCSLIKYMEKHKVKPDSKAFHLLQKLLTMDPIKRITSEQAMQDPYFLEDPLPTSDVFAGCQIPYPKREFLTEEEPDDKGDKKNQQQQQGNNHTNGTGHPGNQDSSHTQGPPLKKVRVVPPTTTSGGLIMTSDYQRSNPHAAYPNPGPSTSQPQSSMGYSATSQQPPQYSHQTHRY
Assay: KINOMEscan competition binding
Conditions: compound 1.0 µM
Below is a list of entries, each paired with its recorded kinase still bound, per cent of control value.
measured metric: kinase still bound, per cent of control

smiles_text=CN(C)C/C=C/C(=O)Nc1cccc(C(=O)Nc2ccc(Nc3nccc(-c4cccnc4)n3)cc2)c1 target_or_system="CDK8 (human) (UniProt P49336)" measured_metric="kinase still bound, per cent of control" readout_value=68%
smiles_text=CN(C)C/C=C/C(=O)Nc1cccc(C(=O)Nc2ccc(Nc3nccc(/C(C#N)=C4\Nc5ccccc5S4)n3)cc2)c1 target_or_system="CDK8 (human) (UniProt P49336)" measured_metric="kinase still bound, per cent of control" readout_value=100%
smiles_text=Cc1cc(NC(=O)c2cccc(NC(=O)/C=C/CN(C)C)c2)ccc1Nc1nccc(-c2cccnc2)n1 target_or_system="CDK8 (human) (UniProt P49336)" measured_metric="kinase still bound, per cent of control" readout_value=51%
smiles_text=CN(C)C/C=C/C(=O)Nc1cccc(C(=O)Nc2ccc(Nc3nccc(-c4c(-c5ccccc5)nn5ccccc45)n3)cc2)c1 target_or_system="CDK8 (human) (UniProt P49336)" measured_metric="kinase still bound, per cent of control" readout_value=100%
